meta.source: ChEMBL document CHEMBL3507680

Task for the reader: assign each of the following compounds its reported cytotoxicity at 70.5 h.
Assay: Human HepG2 cell viability assay in 384 well format
Format: toxicity, cell-based
Parameters: dose 125 nL, time 70.5 hour; concentration not given beside the values
Conditions: HepG2 cells, read-out: Inhibition
Just the number in %, nothing appended.

IN: Name the reported cytotoxicity at 70.5 h value associated with the compound COCCN(Cc1ccccn1)Cc1sccc1C
OUT: -10.3

IN: Name the reported cytotoxicity at 70.5 h value associated with the compound CC(C)c1nc(COc2cccc3c2NC(=O)CO3)cs1
OUT: 13.8

IN: Name the reported cytotoxicity at 70.5 h value associated with the compound COc1cccc(Cl)c1C(C(=O)O)N1CCC(Cn2cccn2)CC1 (centres undefined)
OUT: 17.9

IN: Name the reported cytotoxicity at 70.5 h value associated with the compound Cc1cnn(CC2CCCCN2Cc2cc(C)no2)c1 (centres undefined)
OUT: -8.3

IN: Name the reported cytotoxicity at 70.5 h value associated with the compound CN1Cc2c(C(=O)NCC3CCCO3)ncn2-c2ccccc2S1(=O)=O (centres undefined)
OUT: -0.787

IN: Name the reported cytotoxicity at 70.5 h value associated with the compound Cc1ccc(C)c(S(=O)(=O)NC(=O)c2ccc(C)[nH]c2=O)c1
OUT: -4.64

IN: Name the reported cytotoxicity at 70.5 h value associated with the compound Cc1cnn(CCNCC(=O)NCc2ccccc2)c1
OUT: -12.3

IN: Name the reported cytotoxicity at 70.5 h value associated with the compound CCOc1ncccc1CNC(=O)NCCNC(=O)c1ccco1
OUT: -4.58

IN: Name the reported cytotoxicity at 70.5 h value associated with the compound Cc1cc(CN(C)C(=O)C2CC(=O)N(Cc3cccnc3)C2)on1 (centres undefined)
OUT: -9.4

IN: Name the reported cytotoxicity at 70.5 h value associated with the compound CC(C)N1CC(C(=O)NC(C)(C)CNC(=O)OC(C)(C)C)CC1=O (centres undefined)
OUT: -3.84

IN: Name the reported cytotoxicity at 70.5 h value associated with the compound NC(=O)N1CCCN(CCCSCc2ccccc2)CC1
OUT: -17.6

IN: Name the reported cytotoxicity at 70.5 h value associated with the compound Cc1ccc(S(N)(=O)=O)cc1C(=O)NC1CCN(C2CC2)CC1
OUT: 21.9

IN: Name the reported cytotoxicity at 70.5 h value associated with the compound CCn1cc(CNC(=O)CCc2nnc(-c3ccc(C)s3)o2)cn1
OUT: 10

IN: Name the reported cytotoxicity at 70.5 h value associated with the compound CN(C)C(=O)NC1COC2(CCN(C(=O)Nc3ccccc3)CC2)C1 (centres undefined)
OUT: 7.49

IN: Name the reported cytotoxicity at 70.5 h value associated with the compound COc1ccc(S(=O)(=O)NCC(c2cccn2C)N(C)C)cc1F (centres undefined)
OUT: -8.8

IN: Name the reported cytotoxicity at 70.5 h value associated with the compound CCN1CCc2[nH]cnc2C12CCN(Cc1ccc3nsnc3c1)CC2
OUT: -5.41

IN: Name the reported cytotoxicity at 70.5 h value associated with the compound COc1cccc(CN2CC[C@H](c3nnc(-c4ccco4)o3)C2)c1
OUT: 10.6

IN: Name the reported cytotoxicity at 70.5 h value associated with the compound Cc1ccc(Cl)cc1N1CCC(CNC(=O)Cn2cccn2)C1 (centres undefined)
OUT: 5.6

IN: Name the reported cytotoxicity at 70.5 h value associated with the compound CCc1cc(C(=O)NCC2CCN(Cc3cccc(C)n3)C2)on1 (centres undefined)
OUT: -1.06

IN: Name the reported cytotoxicity at 70.5 h value associated with the compound CC(C)CN1C(=O)CO[C@@H]2CN(C(=O)NC(C)C)C[C@H]21
OUT: -2.72

IN: Name the reported cytotoxicity at 70.5 h value associated with the compound O=C(c1cccc2c1OCO2)N1CCCC(n2cccn2)C1 (centres undefined)
OUT: -9.01

IN: Name the reported cytotoxicity at 70.5 h value associated with the compound CCCN(Cc1nc(-c2ccc(F)c(OC)c2)oc1C)CC1CCCO1 (centres undefined)
OUT: -5.99

IN: Name the reported cytotoxicity at 70.5 h value associated with the compound Cc1n[nH]c(C)c1NC(=O)CCc1cccc(C2CCCN(C)C2)n1 (centres undefined)
OUT: -3.99

IN: Name the reported cytotoxicity at 70.5 h value associated with the compound O=C(Nc1ccccc1OCC1CCCCO1)c1ccc(O)nc1 (centres undefined)
OUT: -13
